# assay.comment: NCI Yeast Anticancer Drug Screen. Data for the sgs1 mgt1 strain (AID 161);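 note: 0% = growth of cultures given vehicle only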
# condition.context: S. cerevisiae sgs1 mgt1 strain, at 50.0 µM (retest, dose inferred, filed as 5.0)
The panel holds about 79,000 compounds, 15% with a hit somewhere; the sample as a whole holds those more often. Calls of active or inactive are those of the source. Cut-off read from the data, not from the text of the source: active = growth inhibition above about 70%; inactive = the rest.
Bench note: report the call from active, inactive

// known answers, use as guide
CSc1nc(SC)c2cnn(Cc3ccccc3)c2n1	inactive
Cc1[nH]c2ccccc2c1/C=C1\C(=O)C2CCC1C2 (stereo unspecified)	active
COc1ccc2nc3cc(Cl)ccc3c(NCCNc3c4ccc(Cl)cc4nc4ccc(OC)cc34)c2c1	active
CC(=O)n1nc2c(c1CC(C)C)C(=O)C(Nc1ccccc1)=CC2=O	active
COc1ccc(/C=N/Nc2ccccc2)cc1	active
OCc1ccccc1CC(O)(c1ccccc1)c1ccccc1	active
COc1cccc(C2c3cc4c(cc3OC(NNS(=O)(=O)c3ccc(C)cc3)C2C)OCO4)c1O (stereo unspecified)	active
CCCCCC=C(c1cc(Br)cc(C(=O)O)c1O)c1cc(Br)cc(C(=O)O)c1O	active
O=C(N=c1sc2ccccc2s1)N=c1sc2ccccc2s1	inactive
CC1CCC(C(C)C2C(O)CC3C4CC=C5CC(O)CCC5(C)C4CCC32C)NC1 (stereo unspecified)	active

Next item in the queue.
Returns: the outcome recorded for CSc1ncccc1C(=O)[O][Sn]([c]1ccccc1)([c]1ccccc1)[c]1ccccc1 in this assay.
active

----------
# assay.comment: NCI Yeast Anticancer Drug Screen. Data for the rad50 strain (AID 155);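 note: 0% = growth of vehicle-only cultures of the same strain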
# condition.context: S. cerevisiae rad50 strain growth inhibition; at 50.0 µM; active compounds read high
The panel holds about 79,000 compounds, 15% with a hit somewhere; the sample as a whole holds those more often.
Please mark 1 if the recorded growth inhibition is equal to or greater than 90%, and 0 if it falls below.

// known answers, use as guide
ON=C1c2ccccc2-c2ccccc21	0
CCOC(=O)c1ccc([N+](=O)[O-])o1	1
CCNCCNc1cc(O)c2c(c1O)C(=O)c1ccccc1C2=O	0

Does the reported growth inhibition for CS(=O)(=O)OCCN(CCOS(C)(=O)=O)c1ccc(C=Nc2cccc(Cl)c2)cc1 fall at or above the 90% mark?
1

For CCOC(=O)C(CO)c1nc2c([nH]c1=O)c(=O)n(C)c(=O)n2C (stereo not given) then?
0

For O=C(c1cccc(Cl)c1)c1ccc2ccccc2c1C(=O)O then?
0

----------
# assay.comment: NCI Yeast Anticancer Drug Screen. Data for the mec2-1 strain (AID 157)
# condition.context: S. cerevisiae mec2-1 strain, at 50.0 µM
# Method: Growth inhibition of yeast strains with defined genetic alterations is measured as a screen for potential anti-cancer activity. Selected strains with alterations in DNA damage repair or cell cycle control were exposed to compounds and growth inhibition was measured relative to vehicle treated controls. The strain used in this assay is mec2-1
Compounds without any hit were thinned out: in the full panel of roughly 79,000, 15% have a hit. Activity calls are given as the source filed them. Rule as the data show it: active = growth inhibition above about 70%; inactive = the rest.
Bench note: report the call from active, inactive

// known answers, use as guide
COC(=O)c1nc2ccc([N+](=O)[O-])cc2n1O	inactive
CNC(=O)N1N[C@H](c2ccccc2)[C@@H]1c1ccccc1	inactive
O=Cc1cc(S(=O)(=O)c2ccc(O)c(C=O)c2)ccc1O	active

Returns: the outcome recorded for Cc1ccc(N=C=C(c2ccccc2)c2ccccc2)cc1 in this assay.
inactive

For COC(=O)c1[nH]c(=O)c(C#N)c(C(=O)OC)c1C(=O)c1ccc2ccccc2c1 then?
inactive

For COc1cccc(C(=O)C(CN(C)C)CN(C)C)c1 then?
inactive

For CCCCCCCN=C(N)c1ccc(C(=O)OCc2ccccc2)cc1 then?
active

For Cn1c(C(C)(C)OC(=O)Oc2ccccc2)cnc1[N+](=O)[O-] then?
inactive

----------
# assay.comment: NCI Yeast Anticancer Drug Screen. Data for the rad50 strain (AID 155);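 note: 0% = growth of vehicle-only cultures of the same strain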
# condition.context: S. cerevisiae rad50 strain growth inhibition; at 50.0 µM (retest, dose inferred, filed as 5.0)
This is part of a sample that, as a whole, favours compounds with a hit. Of some 79,000 tested, about 15% had one in any assay. The source made the active and inactive calls. No stated cut-off is given here; in the data, active means growth inhibition above about 70%; inactive means the rest.
Bench note: report the call from active, inactive

// known answers, use as guide
CN(C)CCSc1cc(-c2ccccc2)c2ccccc2n1	active
CCCCCCCNc1ccc2c(cc1=O)C(NC(C)=O)CCc1cc(OC)c(OC)c(OC)c1-2 (stereo unspecified)	active
COC(=O)c1c(C(N)=O)c(C)n(NC(=O)c2ccccc2)c1C	inactive

Returns: the outcome recorded for CCCCCCCCCCCC(=O)OCC1OC(n2cc(F)c(=O)[nH]c2=O)C(N)C(O)C1O (stereo unspecified) in this assay.
inactive

For Cc1ccc(N=c2cc(-c3ccccc3)oc3ccccc23)c(C)c1 then?
active

----------
# assay.comment: NCI Yeast Anticancer Drug Screen. Data for the bub3 strain (AID 167)
# condition.context: S. cerevisiae bub3 mutant strain, at 5.0 µM (retest, dose inferred, filed as 0.5)
About 79,000 compounds went through this panel and 15% of them were active in at least one assay; those are over-represented in the sample as a whole. Activity calls are given as the source filed them. Cut-off read from the data, not from the text of the source: active = growth inhibition above about 70%; inactive = the rest.
Bench note: report the call from 1 (active), -1 (inactive)

// known answers, use as guide
O=[N+]([O-])c1ccc(-c2nc3ccc(F)cc3[nH]2)o1	1
COc1ccc2c(c1OC)C(C(Cl)(Cl)Cl)N1CCc3cc4c(cc3C1=C2)OCO4 (stereo not given)	-1
CC(C)(c1ccccc1)c1ccc2[nH]c(C(C)(C)c3ccccc3)c(CC(=O)O)c2c1	-1
COc1ccc(/C=N/Nc2ccccc2)cc1	-1

Next item in the queue.
Returns: the outcome recorded for C=C1CC(c2ccc(OCCCN3C(=O)c4ccccc4C3=O)c(OC)c2)OC1=O (stereo not given) in this assay.
-1

----------
# assay.comment: NCI Yeast Anticancer Drug Screen. Data for the bub3 strain (AID 167)
# condition.context: S. cerevisiae bub3 mutant strain, at 5.0 µM (retest, dose inferred, filed as 0.5), active compounds read high
About 79,000 compounds went through this panel and 15% of them were active in at least one assay; those are over-represented in the sample as a whole.
Please mark 1 if the recorded growth inhibition is equal to or greater than 10%, and 0 if it falls below.

// known answers, use as guide
O=[N+]([O-])c1ccc2c(c1)Cc1cc(O)c(I)cc1-2	0
O=C(CCl)Oc1c(Br)cc(-c2ccccc2)cc1Br	1
FC(F)(F)C(C1=NC(C(F)(F)F)(C(F)(F)F)N=C(N2CCOCC2)O1)C(F)(F)F	1
CCOC1Oc2ccccc2-c2nc(SC)ncc21 (stereo not drawn)	1
Nc1ccc(SSc2ccc(N)cc2)cc1	0

Does the reported growth inhibition for CCCCCCCCCN(CCCCCCCCC)CC(O)c1cc2c(c3ccccc13)CCCC2 (stereo not drawn) fall at or above the 10% mark?
1

For S=C(N/N=C1\C=Cc2ccccc2C1)N/N=C1\C=Cc2ccccc2C1 then?
0

For Cc1cc2nc(CS)[nH]c2cc1C then?
1

For CC(=O)Nc1ccc(/S(=N\S(=O)(=O)c2ccc(C)cc2)c2ccc(NC(C)=O)cn2)cc1 (stereo not drawn) then?
0

For N#Cc1c(-c2ccc(Cl)cc2)c(-c2ccc(Cl)cc2)nn(CCOC(=O)CCC(=O)O)c1=O then?
1

For C[N+](C)([O-])CCOc1cc2c(c3ccccc13)-c1ccccc1C2=O then?
0

For CC#CS(=O)(=O)c1ccccc1 then?
0

For CCCc1cc(=O)oc2c3c(c4c(c12)OC(C)(C)CC4)O[C@H](C)[C@@H](C)[C@H]3O then?
1

For CCCCCCCCCCCCCCCCNc1ccn(C2CC(OP(=O)(O)OCC3OC(n4cc(CC)c(=O)[nH]c4=O)CC3O)C(CO)O2)c(=O)n1 (stereo not drawn) then?
0

----------
# assay.comment: NCI Yeast Anticancer Drug Screen. Data for the cln2 rad14 strain (AID 165);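 note: 0% = growth equal to vehicle treated cultures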
# condition.context: S. cerevisiae cln2 rad14 strain, at 5.0 µM (retest, dose inferred, filed as 0.5), active compounds read high
The panel holds about 79,000 compounds, 15% with a hit somewhere; the sample as a whole holds those more often.
Provide the recorded growth inhibition for the entries that follow.
Answers are plain numbers, in %.

C[n+]1c(-c2cccc(OCCOCCOc3cccc(-c4c5cc(N)ccc5c5ccc(N)cc5[n+]4C)c3)c2)c2cc(N)ccc2c2ccc(N)cc21	10
Nc1nc2c(ccc3ccccc32)s1	14
O=c1cc(-c2ccccc2)[nH]c2ccc(N3CCCC3)cc12	0
O=C(O)Cc1nc2ccccc2[nH]1	0
C/C=C(/CN/C(=C\[N+](=O)[O-])c1ccccc1)c1ccccc1	-1
OC1(C2CCCCC2)c2ccccc2Cc2ccccc21	-1

Look up growth inhibition for the entries below, preserving their order.
1. CC1(C(Cl)(Cl)Cl)C=CC(O)(C#CC2(O)C=CC(C)(C(Cl)(Cl)Cl)C=C2)C=C1 (stereo unspecified)
2. Cc1ccc(N=C=C(c2ccccc2)c2ccccc2)cc1
3. Cc1ccc(C)c(N2C(=O)C(=O)C(c3nc4ccccc4o3)C(=O)C2=O)c1
4. Cc1c2cc[n+](C)cc2c(C)c2c1sc1ccccc12
5. Cc1c(CC=C(c2ccccc2)c2ccccc2)cccc1C[N+](C)(C)C

[87, 9, 30, 4, 2]
